- target: T1, TNFR1 (Homo sapiens, UniProt P19438)
- T1 chain: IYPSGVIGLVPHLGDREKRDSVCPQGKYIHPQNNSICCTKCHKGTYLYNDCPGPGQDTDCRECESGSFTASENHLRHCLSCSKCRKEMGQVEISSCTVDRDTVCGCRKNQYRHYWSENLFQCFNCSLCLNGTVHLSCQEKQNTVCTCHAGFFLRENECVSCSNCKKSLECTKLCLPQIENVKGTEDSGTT
- method_description: yeast display SC50
experimental_readout: apparent Kd (screen) (nM)
Answers are plain numbers, in nM.

K88C (designed binder) SMEEEVEKAAKEYEKKKKEAIEKHLEKLKAKDKEAAERFLKELEEAAKEYAKDEAKTMSEEEAKRRAKKYKEKVLLSELSEEEQKEICEAEEKLVRTILKYVEEAAK ... 0.446
L40D (designed binder) SMEEEVEKAAKEYEKKKKEAIEKHLEKLKAKDKEAAERFDKELEEAAKEYAKDEAKTMSEEEAKRRAKKYKEKVLLSELSEEEQKEIKEAEEKLVRTILKYVEEAAK ... 1.4

Each binder below has a recorded value; state its apparent Kd (screen).
1. K100Y (designed binder) SMEEEVEKAAKEYEKKKKEAIEKHLEKLKAKDKEAAERFLKELEEAAKEYAKDEAKTMSEEEAKRRAKKYKEKVLLSELSEEEQKEIKEAEEKLVRTILYYVEEAAK
2. A20F (designed binder) SMEEEVEKAAKEYEKKKKEFIEKHLEKLKAKDKEAAERFLKELEEAAKEYAKDEAKTMSEEEAKRRAKKYKEKVLLSELSEEEQKEIKEAEEKLVRTILKYVEEAAK

Output:
1: 0.869; 2: 0.446

The values you see were collected from paper PMC12416549.
